Biological target: Ubiquitin carboxyl-terminal hydrolase 14 (Homo sapiens, UniProt P54578)
Sequence (P54578 whole entry): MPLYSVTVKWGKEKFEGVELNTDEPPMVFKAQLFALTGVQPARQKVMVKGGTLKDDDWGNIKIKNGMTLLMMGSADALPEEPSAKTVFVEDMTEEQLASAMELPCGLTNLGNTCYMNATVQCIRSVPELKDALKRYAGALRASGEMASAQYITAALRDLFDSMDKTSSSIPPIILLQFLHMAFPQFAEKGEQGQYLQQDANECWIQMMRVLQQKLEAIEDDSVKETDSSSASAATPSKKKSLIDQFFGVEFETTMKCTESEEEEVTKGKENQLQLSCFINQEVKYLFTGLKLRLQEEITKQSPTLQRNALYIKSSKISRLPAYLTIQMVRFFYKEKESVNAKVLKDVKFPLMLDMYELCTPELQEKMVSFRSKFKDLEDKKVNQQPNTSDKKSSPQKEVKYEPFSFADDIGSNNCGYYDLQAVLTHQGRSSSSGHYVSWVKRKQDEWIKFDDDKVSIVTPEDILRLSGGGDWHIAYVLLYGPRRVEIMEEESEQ
propertyMeasured: pKd
Numbers only, as −log10 of the molar value.

QUERY: Kindly indicate its recorded pKd. Item: C=CC(=O)N1CC/C(=C\c2ccc(F)c([N+](=O)[O-])c2)C(=O)/C(=C/c2ccc(F)c([N+](=O)[O-])c2)C1
RESULT: 4.85

---

Molecular target: Ubiquitin carboxyl-terminal hydrolase 7 (Homo sapiens, UniProt Q93009)
Sequence (Q93009 whole entry): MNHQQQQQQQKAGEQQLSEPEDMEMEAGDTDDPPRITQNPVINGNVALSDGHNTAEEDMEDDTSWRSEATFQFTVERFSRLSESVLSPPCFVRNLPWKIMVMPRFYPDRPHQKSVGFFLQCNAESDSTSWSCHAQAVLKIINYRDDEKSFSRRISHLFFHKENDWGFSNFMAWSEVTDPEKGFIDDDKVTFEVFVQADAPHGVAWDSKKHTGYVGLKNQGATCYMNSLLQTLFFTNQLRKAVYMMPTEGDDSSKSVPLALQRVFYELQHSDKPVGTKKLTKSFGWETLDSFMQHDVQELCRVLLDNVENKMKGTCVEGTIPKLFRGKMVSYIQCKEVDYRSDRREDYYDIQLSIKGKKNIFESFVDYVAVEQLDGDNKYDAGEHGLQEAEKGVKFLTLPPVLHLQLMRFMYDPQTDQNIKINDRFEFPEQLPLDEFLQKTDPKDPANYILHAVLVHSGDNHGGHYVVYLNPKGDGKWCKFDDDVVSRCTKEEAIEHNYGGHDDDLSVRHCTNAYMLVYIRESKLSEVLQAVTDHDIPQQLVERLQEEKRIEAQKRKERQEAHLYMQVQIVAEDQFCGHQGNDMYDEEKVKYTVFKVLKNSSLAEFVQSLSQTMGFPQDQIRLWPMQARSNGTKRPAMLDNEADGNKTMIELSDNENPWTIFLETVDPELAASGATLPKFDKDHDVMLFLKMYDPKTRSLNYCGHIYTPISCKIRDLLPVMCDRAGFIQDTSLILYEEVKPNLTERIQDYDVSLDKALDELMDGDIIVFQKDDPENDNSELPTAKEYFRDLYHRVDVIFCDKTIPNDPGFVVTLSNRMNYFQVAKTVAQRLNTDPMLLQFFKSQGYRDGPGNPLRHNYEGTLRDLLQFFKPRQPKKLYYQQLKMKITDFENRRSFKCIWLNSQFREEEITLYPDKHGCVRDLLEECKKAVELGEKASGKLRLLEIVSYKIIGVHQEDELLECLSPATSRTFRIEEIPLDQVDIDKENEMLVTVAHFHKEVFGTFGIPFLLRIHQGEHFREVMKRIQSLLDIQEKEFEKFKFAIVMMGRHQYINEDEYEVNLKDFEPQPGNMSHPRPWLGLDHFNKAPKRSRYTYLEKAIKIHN
Experiment: Inhibition of human USP7 by SPR analysis
propertyMeasured: pIC50
Numbers only, as −log10 of the molar value.

QUERY: Kindly indicate its recorded pIC50. Item: C=CS(=O)(=O)Nc1ccccc1-c1ccc(C(=O)N2CCC(O)(Cn3cnc4c(cnn4-c4ccc(F)cc4)c3=O)CC2)cc1
RESULT: 7.19

---

Molecular target: Ubiquitin carboxyl-terminal hydrolase 7 (Homo sapiens, UniProt Q93009)
Assay: Inhibition of USP7 (unknown origin)
propertyMeasured: IC50 (nM)
Numbers only, in nM.

QUERY: Kindly indicate its recorded IC50. Item: CC(=O)c1cc([N+](=O)[O-])c(Sc2c(Cl)cncc2Cl)s1
RESULT: 2000

---

Biological target: UniProtKB P45974
Sequence (P45974 whole entry): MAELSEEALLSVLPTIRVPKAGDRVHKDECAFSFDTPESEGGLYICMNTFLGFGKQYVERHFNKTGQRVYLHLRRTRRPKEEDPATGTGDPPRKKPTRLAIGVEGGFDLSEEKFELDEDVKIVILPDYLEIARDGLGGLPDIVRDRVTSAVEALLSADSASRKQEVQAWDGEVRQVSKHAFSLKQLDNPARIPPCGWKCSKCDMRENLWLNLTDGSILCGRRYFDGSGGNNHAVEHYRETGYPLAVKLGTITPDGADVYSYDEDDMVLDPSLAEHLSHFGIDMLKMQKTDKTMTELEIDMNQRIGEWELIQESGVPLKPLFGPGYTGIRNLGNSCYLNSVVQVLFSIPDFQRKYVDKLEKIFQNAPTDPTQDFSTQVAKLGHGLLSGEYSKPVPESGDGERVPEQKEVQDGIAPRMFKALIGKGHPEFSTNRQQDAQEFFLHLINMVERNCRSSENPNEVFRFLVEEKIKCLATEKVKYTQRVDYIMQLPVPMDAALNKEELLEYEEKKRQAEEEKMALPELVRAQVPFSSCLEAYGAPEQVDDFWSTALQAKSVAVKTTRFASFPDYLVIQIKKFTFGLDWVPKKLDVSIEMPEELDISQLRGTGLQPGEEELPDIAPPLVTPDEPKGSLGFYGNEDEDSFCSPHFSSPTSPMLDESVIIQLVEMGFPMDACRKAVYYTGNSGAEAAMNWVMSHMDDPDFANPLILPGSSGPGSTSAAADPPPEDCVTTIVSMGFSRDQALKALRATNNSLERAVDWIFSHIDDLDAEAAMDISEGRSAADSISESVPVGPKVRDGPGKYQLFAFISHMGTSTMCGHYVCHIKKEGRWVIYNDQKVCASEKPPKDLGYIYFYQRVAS
Test: Inhibition of human USP5 using Ub-PA as substrate assessed as deubiquitination level incubated for 1 hr by SDS-PAGE assay
propertyMeasured: pIC50
One number for each entry, as −log10 of the molar value.

QUERY: Kindly indicate its recorded pIC50. Item: Cc1cc(C(=O)CN2CCCCC2)c(C)n1-c1ccc(F)cc1
RESULT: 4.54

---

Biological target: Ubiquitin carboxyl-terminal hydrolase 2 (Homo sapiens, UniProt O75604)
Sequence (O75604 whole entry, the tested form may be a part): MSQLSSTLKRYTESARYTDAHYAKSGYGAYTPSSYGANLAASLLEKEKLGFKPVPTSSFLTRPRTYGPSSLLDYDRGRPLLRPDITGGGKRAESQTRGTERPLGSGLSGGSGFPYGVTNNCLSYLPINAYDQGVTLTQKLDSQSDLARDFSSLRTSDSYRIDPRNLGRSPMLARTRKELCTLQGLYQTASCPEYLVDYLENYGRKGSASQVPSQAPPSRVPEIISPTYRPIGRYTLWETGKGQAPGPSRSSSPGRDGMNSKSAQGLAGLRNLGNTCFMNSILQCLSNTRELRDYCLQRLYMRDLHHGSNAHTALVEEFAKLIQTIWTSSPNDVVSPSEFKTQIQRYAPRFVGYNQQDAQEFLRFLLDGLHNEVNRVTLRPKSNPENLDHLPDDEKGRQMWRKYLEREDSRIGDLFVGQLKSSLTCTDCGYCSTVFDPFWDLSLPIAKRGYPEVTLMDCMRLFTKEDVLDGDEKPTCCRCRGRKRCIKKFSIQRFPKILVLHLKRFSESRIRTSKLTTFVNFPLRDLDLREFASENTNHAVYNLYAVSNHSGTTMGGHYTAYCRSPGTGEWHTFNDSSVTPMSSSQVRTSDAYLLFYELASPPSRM
Experiment: Inhibition of human USP2 (258 to 605 residues) catalytic domain by fluorescence based assay
propertyMeasured: IC50

molecule	IC50
Sc1ncnc2nc[nH]c12 [MERCAPTOPURINE ANHYDROUS]	> 100 µM

# next molecule below
QUERY: Recall the reported IC50 of Nc1nc2nc[nH]c2c(=S)[nH]1 on Ubiquitin carboxyl-terminal hydrolase 2 (Homo sapiens, UniProt O75604) and write it down.
RESULT: 42 µM

---

Target: Ubiquitin carboxyl-terminal hydrolase 7 (Homo sapiens)
Assay: Inhibition of human USP7 using Ub-AMC as substrate
Kindly supply the reported IC50 values for the records listed here.
Give bare numbers, in µM.

molecule	unitTag	IC50
CC(C)C(CC(=O)N1CCC(O)(Cn2cnc3cc(NC(=O)CCN4CCN(C)CC4)ccc3c2=O)CC1)c1ccccc1 (stereo not given)	µM	0.27
O=C(CCc1ccccc1)N1CCC(O)(Cn2cnc3cc(Cl)ccc3c2=O)CC1	µM	12
C[C@H](CC(=O)N1CCC(O)(Cn2cnc3cc(NC(=O)CCN4CCOCC4)ccc3c2=O)CC1)c1ccccc1	µM	0.48
CC(CC(=O)N1CCC(O)(Cn2cnc3cc(Cl)ccc3c2=O)CC1)c1ccccc1 (stereo not given)	µM	1.3
N#Cc1nc2c(nc1C#N)-c1cc(Cl)ccc1C2=O	µM	2.55

QUERY: Kindly indicate its recorded IC50. Item: N#Cc1nc2c(nc1C#N)-c1ccc(Cl)cc1C2=O
RESULT: 0.4

---

Target: UniProt:Q93009
Assay: Inhibition of human USP7 using human N-terminal GST-tagged UBA52 as substrate preincubated for 10 mins followed by substrate addition measured after 45 mins by coomassie brilliant blue staining-based SDS-PAGE analysis
Kindly supply the reported IC50 values for the records listed here.
Answers are plain numbers, in µM.

smilesRepresentation	IC50 (µM)
C[C@H]1[C@H](C)CC[C@]2(C(=O)O)CC[C@]3(C)C(=CC[C@@H]4[C@@]5(C)C[C@@H](O)[C@H](O)C(C)(C)[C@@H]5CC[C@]43C)[C@H]12	22.7

# next compound below
QUERY: Kindly indicate its recorded IC50. Item: CC1(C)CC[C@]2(C(=O)O)CC[C@]3(C)C(=CC[C@@H]4[C@@]5(C)CC[C@H](O)[C@@](C)(CO)[C@@H]5CC[C@]43C)[C@@H]2C1
RESULT: 33.5
